Measured values drawn from patent US20220056037A1 for this set.

Tested on: MAXFLB MCF7 (ER +)
experiment: 2D cell proliferation assay (CellTiter-Blue)
Assay type: cell-based
run.conditions: Homo sapiens, 72 h; cell line MAXFLB MCF7 (ER +); three days of treatment; read-out: IC (abs. IC50)
measurement.label: IC50 (nM)

1) CN1CCN(c2ccc(Nc3ncc4cc(C(=O)N(C)C)n(C56CC(C5)C6)c4n3)cc2)CC1 [SPV113] :: 173

----------
target.under.test: CDK6-CYCLIND3 (Homo sapiens)
Construct: purchased Carna
Sequence (Q00534 whole entry): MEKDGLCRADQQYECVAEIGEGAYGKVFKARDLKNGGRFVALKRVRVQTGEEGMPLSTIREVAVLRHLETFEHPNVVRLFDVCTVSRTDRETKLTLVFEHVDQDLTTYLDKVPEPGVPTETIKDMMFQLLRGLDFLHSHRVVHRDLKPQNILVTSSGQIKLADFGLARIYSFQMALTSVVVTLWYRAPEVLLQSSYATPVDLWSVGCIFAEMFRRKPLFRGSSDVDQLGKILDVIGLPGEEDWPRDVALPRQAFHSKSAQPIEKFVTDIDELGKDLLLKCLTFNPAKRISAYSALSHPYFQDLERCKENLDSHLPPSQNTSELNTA
Sequence (P30281 whole entry partner): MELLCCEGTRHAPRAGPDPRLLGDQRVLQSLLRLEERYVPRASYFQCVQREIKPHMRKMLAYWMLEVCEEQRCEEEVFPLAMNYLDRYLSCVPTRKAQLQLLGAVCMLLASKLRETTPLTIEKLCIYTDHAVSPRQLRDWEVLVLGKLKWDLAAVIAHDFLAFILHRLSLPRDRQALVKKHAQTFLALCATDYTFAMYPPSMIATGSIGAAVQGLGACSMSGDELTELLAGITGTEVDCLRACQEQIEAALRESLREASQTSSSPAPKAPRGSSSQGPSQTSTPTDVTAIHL
experiment: Inhibition assay, microfluidic LabChip (Nanosyn)
Type: biochemical
run.conditions: Table 2; ATP 300 μM; read-out: CDK6 IC50
measurement.label: log10 of IC50 (log10 of the value in nM)

1) CN(C)C(=O)c1cc2cnc(Nc3ccc(N4CCN(C#N)CC4)cn3)nc2n1C1CCCC1 [Compound A23] :: 1.99
2) CN1CCN(c2ccc(Nc3ncc4c(F)c(C(=O)N(C)C)n(C5CCCC5)c4n3)nc2)CC1 [Compound A2] :: 1.73
3) CN(C)C(=O)c1c(F)c2cnc(Nc3ccc(C4=CCNCC4)cn3)nc2n1C1CCCC1 [Compound A22] :: 1.91
4) CN(C)CCOc1ccc(Nc2ncc3cc(C(=O)N(C)C)n(C4CCCC4)c3n2)nc1 [Compound A4] :: 1.54
5) CC(C)N1CCN(c2ccc(Nc3ncc4c(F)c(C(=O)N(C)C)n(C5CCCC5)c4n3)cc2)CC1 [Compound A36] :: 1.51
6) CN(C)C(=O)c1cc2cnc(Nc3ccc(N4CCC(N5CCOCC5)CC4)cc3)nc2n1C12CC(C1)C2 [Compound A45] :: 1.87
7) CN(C)C(=O)c1cc2cnc(Nc3ccc(C(=O)N4CC[C@H](N(C)C)C4)cc3)nc2n1C12CC(C1)C2 [Compound A44] :: 1.00
8) CC(C)N1CC=C(c2ccc(Nc3ncc4cc(C(=O)N(C)C)n(C56CC(C5)C6)c4n3)nc2)CC1 [Compound A43] :: 1.52
9) CN(C)C(=O)c1cc2cnc(Nc3ccc(N4CCNCC4)cn3)nc2n1C12CC(C1)C2 [Compound A12] :: 1.00
10) CN(C)C(=O)c1c(F)c2cnc(Nc3ccc(N4CCN5CCC4CC5)cn3)nc2n1C1CCCC1 [Compound A10] :: 1.70
11) CN(C)CCOc1ccc(Nc2ncc3c(F)c(C(=O)N(C)C)n(C4CCCC4)c3n2)nc1 [Compound A3] :: 1.81
12) Cc1cc(Nc2ncc3cc(C(=O)N(C)C)n(C45CC(C4)C5)c3n2)ccc1N1CCN(C(C)C)CC1 [Compound A31] :: 1.53
13) CN(C)C(=O)c1cc2cnc(Nc3ccc(N4CCNCC4)c(F)c3)nc2n1C12CC(C1)C2 [Compound A17] :: 0.91
14) CN1CCN(c2ccc(Nc3ncc4c(F)c(C(=O)N(C)C)n(C5CCCC5)c4n3)cn2)CC1 [Compound A28] :: 1.91
15) CN1CCN(c2ccc(Nc3ncc4cc(C(=O)N(C)C)n(C56CC(C5)C6)c4n3)cc2F)CC1 [Compound A30] :: 1.50
16) CN(C)C(=O)c1cc2cnc(Nc3ccc(N4CC5(CNC5)C4)c(F)c3)nc2n1C12CC(C1)C2 [Compound A47] :: 1.22
17) CN1CCN(c2ccc(Nc3ncc4c(F)c(C(=O)N(C)C)n(C5CCCC5)c4n3)cc2)CC1 [Compound A19] :: 1.66
18) CN(C)C(=O)c1cc2cnc(Nc3ccc(OCCN4CCCCC4)cn3)nc2n1C1CCCC1 [Compound A6] :: 1.56
19) CN(C)C(=O)c1cc2cnc(Nc3ccc(N4CC5(CNC5)C4)nc3)nc2n1C12CC(C1)C2 [Compound A46] :: 1.45
20) CN(C)C(=O)c1c(F)c2cnc(Nc3ccc(N4CCOCC4)c(F)c3)nc2n1C1CCCC1 [Compound A20] :: 1.87
21) COc1cc(Nc2ncc3c(F)c(C(=O)N(C)C)n(C4CCCC4)c3n2)ccc1N1CCN(C(C)C)CC1 [Compound A35] :: 2.34
22) CN(C)C(=O)c1cc2cnc(Nc3cc(C(F)(F)F)c(N4CCNCC4)cn3)nc2n1C1CCCC1 [Compound A24] :: 3.16
23) CN(C)C(=O)c1c(F)c2cnc(Nc3ccc(N4CCNCC4)cn3)nc2n1C1CCCC1 [Compound A1] :: 1.73
24) CN(C)C(=O)c1cc2cnc(Nc3ccc(N4CCNCC4)cc3)nc2n1C12CC(C1)C2 [Compound A16] :: 0.89
25) CN(C)C(=O)c1c(F)c2cnc(Nc3ccc(OCCN4CCCCC4)nc3)nc2n1C1CCCC1 [Compound A27] :: 2.06
26) CN(C)C(=O)c1cc2cnc(Nc3ccc(OCCN4CCCC4)nc3)nc2n1C1CCCC1 [Compound A8] :: 1.37
27) CN1CCN(c2ccc(Nc3ncc4cc(C(=O)N(C)C)n(C56CC(C5)C6)c4n3)nc2)CC1 [Compound A38] :: 1.37
28) CN(C)C(=O)c1cc2cnc(Nc3ccc(N4CCN5CCC4CC5)cn3)nc2n1C1CCCC1 [Compound A9] :: 1.74
29) CN(C)C(=O)c1cc2cnc(Nc3ccc(N4CCOCC4)c(F)c3)nc2n1C12CC(C1)C2 [Compound A42] :: 1.64
30) CN(C)C(=O)c1cc2cnc(Nc3ccc(OCCN4CCCC4)c(F)c3)nc2n1C1CCCC1 [Compound A32] :: 1.00
